- measurement-description: Quantitative High-Throughput drug screen in 47 multiple myeloma cell lines against the NCATS MIPE library collection: ARD_JJKsccE7 cell viability assay (AID 1918929)
- protocol-conditions: ARD myeloma cell line viability, CellTiter-Glo, 48 h; series mostly up to 45.8 µM
- Source text: PI: Beverly A. Mock Ph.D. Laboratory of Cancer Biology and Genetics, Center for Cancer Research, National Cancer Institute, National Institute of Health, Bethesda, Maryland […] 5; Detector; 425V; Luminescence; Viewlux PerkinElmer. […] 1. […] Briefly, the corresponding myeloma cell lines were screened in 1,536-well plates with 500 cells, 5-uL per well for inhibition of cell viability (assessed by measuring ATP levels with CellTiterGlo). […]
Inconclusive results are not listed. Calls of active or inactive are those of the source. Calls come from the whole dose curve; as a rule, active = well fitted cell-killing curve with a large enough effect; inconclusive = small, poorly fitted or top-dose-only effect, or effect the other way; inactive = no such curve, though single readings can be large or run the other way.
Bench note: report the call from active, inactive

// below: answered molecules
{"columns": ["molecule", "category"],
 "data": [
  ["C[C@@H]1O[C@@H](O[C@@H]2C=C3CC[C@@H]4[C@@H](CC[C@]5(C)[C@H](c6ccc(=O)oc6)CC[C@@]45O)[C@@]3(C)CC2)[C@H](O)[C@H](O)[C@H]1O", "active"],
  ["CCC(=O)OC1CCC2C3CCC4=CC(=O)CC[C@@]4(C)C3CC[C@]12C (some centres not stated)", "inactive"],
  ["C[C@]12CCC(=O)C(O)=C1CC[C@@H]1[C@H]3CCC(=O)[C@@]3(C)CC[C@@H]12", "inactive"],
  ["C=CCON=C(C[C@H]1O[C@@H]2O[C@]3(C)CC[C@@H]4[C@H](C)CC[C@@H]([C@H]1C)[C@@]24OO3)[C@H]1O[C@@H]2O[C@]3(C)CC[C@H]4[C@H](C)CC[C@@H]([C@@H]1C)[C@@]24OO3", "active"],
  ["CN1CCN(c2ccc([N+](=O)[O-])c3no[n+]([O-])c23)CC1", "active"]
]}

### Prompt # lookup: test call for `O=c1[nH]c2ccc(Cl)cc2c(N[C@@H]2CN3CCC2CC3)c1-c1nc2ccccc2[nH]1`
### Response active

### Prompt Next entry: `CC(=Cc1csc(C)n1)[C@@H]1C[C@H]2O[C@]2(C)CCC[C@H](C)[C@@H](O)[C@@H](C)C(=O)C(C)(C)[C@@H](O)CC(=O)O1`
### Response inactive

###

- Test system: CP305
- measurement-description: qHTS profiling for inhibitors of Plasmodium falciparum proliferation (AID 504749); note: nearly all actives have a fitted effect of over 60% in size
- protocol-conditions: P. falciparum in erythrocytes, SYBR Green DNA, 72 h; series mostly up to 28.7 µM
Inconclusive results are not listed. Activity calls are given as the source filed them. The call rests on the fitted dose curve; in most records, active means well fitted inhibition curve with a large enough effect; inconclusive means small, poorly fitted or top-dose-only effect; inactive means flat fitted curve, though single readings scatter.
assay-endpoint: outcome

The cases that follow already have their outcome on record.
{"columns": ["smiles-structure", "target-of-assay", "measured-result"],
 "data": [
  ["CC(=O)OCC1=C(C(=O)O)N2C(=O)[C@@H](N)[C@@H]2SC1", "CP305", "inactive"],
  ["Cc1cc(O)ccc1Cl", "CP305", "inactive"],
  ["COC(=O)[C@@H](N)CCCN=C(N)N[N+](=O)[O-]", "CP305", "inactive"],
  ["C[C@]12CCC(=O)C(O)=C1CC[C@@H]1[C@H]3CCC(=O)[C@@]3(C)CC[C@@H]12", "CP305", "inactive"]
]}

Now consider the entry below.
### Prompt # returns recorded outcome (system: CP305) for `CN(C)[C@@H]1C(=O)C(C(N)=O)=C(O)[C@@]2(O)C(=O)C3=C(O)c4c(O)cccc4[C@@](C)(O)[C@H]3[C@H](O)[C@@H]12`
### Response inactive

###

- measurement-description: qHTS for Inhibitors of the Functional Ribonucleoprotein Complex (vRNP) of Lassa (LASV) Arenavirus: Viability assay - alamar blue signal for LASV Primary Screen (AID 1347083); note: nearly all actives have a fitted effect of over 80% in size
- protocol-conditions: cell viability, alamar blue fluorescence (LASV minigenome counter-screen); series mostly up to 57.5 µM
Inconclusive results are not listed. Calls of active or inactive are those of the source. Calls come from the whole dose curve; tested in HEK293 reporter line.
Bench note: report the call from active, inactive

// below: answered molecules
{"columns": ["molecule", "category"],
 "data": [
  ["Cc1[nH]c2ccccc2c1CCNCc1ccc(C=CC(=O)NO)cc1", "active"],
  ["Cc1cc(-c2ccc(CC(=O)Nc3ccc(-c4cccnc4)cc3)cc2)ccn1", "active"]
]}

### Prompt # lookup: test call for `CCc1c(C(=O)C(N)=O)c2c(OCC(=O)O)cccc2n1Cc1ccccc1`
### Response inactive

### Prompt Next entry: CC(C)CCCC(C)CCCC(C)CCCCC(C)CCCC(C)CCCC(C)C (stereo unspecified)
### Response inactive

### Prompt Next entry: `CN(C(=O)C(Cl)Cl)c1ccc(OC(=O)c2ccco2)cc1`
### Response inactive

###

- measurement-description: qHTS for differential inhibitors of proliferation of Plasmodium falciparum line 7G8 (AID 1815);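 note: parasite growth measured after three days of incubation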; note: potency is the fitted concentration of half-maximal effect
- protocol-conditions: Plasmodium falciparum 7G8 proliferation inhibition; series mostly up to 28.7 µM
Inconclusive results are not listed. Active and inactive are the calls of the source. Calls follow the shape of the dose curve; as a rule, active = well fitted curve in the direction sought with a large enough effect; inconclusive = small, poorly fitted or top-dose-only effect, or another doubt; inactive = no such curve, though single readings can be large or run the other way.
assay-endpoint: Potency

The cases that follow already have their Potency on record.
{"columns": ["molecule", "Potency"],
 "data": [
  ["NC(CCP(=O)(O)O)C(=O)O (stereo not given)", "inactive"],
  ["Cc1nccc2c1[nH]c1ccccc12", "14.1 µM (active)"],
  ["O=C(O)[C@@H]1CCN1", "inactive"],
  ["C[N+]1(C)C2CCC1CC(OC(=O)C(CO)c1ccccc1)C2 (stereo not given)", "inactive"]
]}

### Prompt Please look up its Potency: `CCCN1CCO[C@@H]2c3cc(O)ccc3OC[C@H]21`
### Response inactive

###

- measurement-description: qHTS of pediatric cancer cell lines to identify multiple opportunities for drug repurposing: Primary screen for NB-EBc1 cells (AID 1347095)
- protocol-conditions: NB-EBc1 neuroblastoma viability, CellTiter-Glo luminescence, 48 h; series mostly up to 46 µM
Inconclusive results are not listed. Calls of active or inactive are those of the source. The call rests on the fitted dose curve; in most records, active means well fitted cell-killing curve with a large enough effect; inconclusive means small, poorly fitted or top-dose-only effect; inactive means no such curve, though single readings can be large or run the other way.
Bench note: report the call from active, inactive

{"columns": ["compound", "category"],
 "data": [
  ["O=[N+]([O-])c1ncc[nH]1", "inactive"],
  ["O=c1[nH]c2ccc(Cl)cc2c(N[C@@H]2CN3CCC2CC3)c1-c1nc2ccccc2[nH]1", "active"],
  ["O=C(O)C(Cl)Cl", "inactive"],
  ["CC1=NN=C(c2ccc(N)cc2)c2cc3c(cc2C1)OCO3", "inactive"],
  ["C[C@H]1CCCC=CC2C[C@H](O)C[C@@H]2[C@H](O)C=CC(=O)O1 (some centres undefined)", "active"]
]}

### Prompt # lookup: test call for `COC[C@H]1OC(=O)c2coc3c2[C@@]1(C)C1=C(C3=O)[C@@H]2CC[C@H](O)[C@@]2(C)C[C@@H]1OC(C)=O`
### Response active

### Prompt Next entry: CCOP(=O)(NC(C)C)Oc1ccc(SC)c(C)c1 (centres undefined)
### Response inactive

### Prompt Next entry: `O=S(=O)(O)C(F)(F)C(F)(F)C(F)(F)C(F)(F)C(F)(F)C(F)(F)C(F)(F)C(F)(F)F`
### Response inactive

### Prompt Next entry: `COc1cc2cc(c1Cl)N(C)C(=O)C[C@H](OC(=O)C(C)C)[C@]1(C)O[C@H]1[C@H](C)[C@@H]1C[C@@](O)(NC(=O)O1)[C@H](OC)C=CC=C(C)C2`
### Response active

###

- Test system: W2
- measurement-description: qHTS profiling for inhibitors of Plasmodium falciparum proliferation (AID 504749); note: nearly all actives have a fitted effect of over 60% in size
- protocol-conditions: P. falciparum in erythrocytes, SYBR Green DNA, 72 h; series mostly up to 28.7 µM
Results filed as inconclusive are left out. Active and inactive are the calls of the source. The call rests on the fitted dose curve; in most records, active means well fitted inhibition curve with a large enough effect; inconclusive means small, poorly fitted or top-dose-only effect; inactive means flat fitted curve, though single readings scatter.
Bench note: report the call from active, inactive

{"columns": ["compound", "category"],
 "data": [
  ["O=C(O)COc1ccccc1", "inactive"],
  ["C#CC1(O)CCC2C3CCC4=CC(=O)CCC4(C)C3CCC21C (stereo unspecified)", "inactive"],
  ["O=[N+]([O-])c1ccc([As](=O)(O)O)cc1", "active"],
  ["O=C(O)C(Cl)Cl", "inactive"],
  ["NC(=O)CN1CC(O)CC1=O (stereo unspecified)", "inactive"]
]}

### Prompt # lookup: test call for `C[C@]12CCC(=O)C(O)=C1CC[C@@H]1[C@H]3CCC(=O)[C@@]3(C)CC[C@@H]12`
### Response inactive

### Prompt Next entry: `CC[N+]1(CCOC(=O)C(O)(c2ccccc2)c2ccccc2)CCCCC1`
### Response inactive

###

- measurement-description: MultiTox-Fluor Cytotoxicity Assay - LYMP1-001 - Live Cells (AID 947)
- protocol-conditions: LYMP1-001 lymphoblastoid cells, live-cell protease fluorescence viability; series mostly up to 92.2 µM
Inconclusive results are not listed. Active and inactive are the calls of the source. Calls follow the shape of the dose curve; as a rule, active = well fitted cell-killing curve with a large enough effect; inconclusive = small, poorly fitted or top-dose-only effect; inactive = flat fitted curve, though single readings scatter.
Bench note: report the call from y = active, n = inactive

{"columns": ["smiles-structure", "category"],
 "data": [
  ["CCCCCCCCc1ccc(O)cc1", "n"],
  ["CN(C)[C@@H]1C(=O)C(C(N)=O)=C(O)[C@@]2(O)C(=O)C3=C(O)c4c(O)cccc4[C@@](C)(O)[C@H]3[C@H](O)[C@@H]12", "n"],
  ["C=CC(=O)NCNC(=O)C=C", "n"],
  ["Cc1cc(O)ccc1Cl", "n"],
  ["C1CCC(NC2CCCCC2)CC1", "n"],
  ["Nc1ccc([N+](=O)[O-])cc1", "n"]
]}

### Prompt # lookup: test call for `CC(=O)[O][Hg][c]1ccccc1`
### Response y

### Prompt Next entry: `Nc1ccc(Cl)cc1`
### Response n

### Prompt Next entry: `COc1ccc(C(c2ccc(OC)cc2)C(Cl)(Cl)Cl)cc1`
### Response n

### Prompt Next entry: `c1cc2ccc3cccc4ccc(c1)c2c34`
### Response n
